molecular target: hpol κ (Homo sapiens); test: TAMRA strand-displacement fluorescence assay of DNA polymerase activity; format: biochemical; settings: IC50, 1 nM hpol κ, 25 nM DNA; 95% CI in parentheses
property-measured: IC50 (µM)
Unit µM implied. Number only.

Challenge: Provide IC50, system hpol κ (Homo sapiens), entry Cl.[H]/N=C(\N)NN=Cc1cn(C(=O)c2cccc3ccccc23)c2ccc(Cl)cc12
Response given: 8.9

---

biological target: hpol κ (Homo sapiens, UniProt Q9UBT6); experiment: TAMRA strand-displacement fluorescence assay of DNA polymerase activity; format: biochemical; conditions: IC50, 0.2 nM hpol κ, 2.5 nM DNA; 95% CI in parentheses
Sequence (Q9UBT6 19-526): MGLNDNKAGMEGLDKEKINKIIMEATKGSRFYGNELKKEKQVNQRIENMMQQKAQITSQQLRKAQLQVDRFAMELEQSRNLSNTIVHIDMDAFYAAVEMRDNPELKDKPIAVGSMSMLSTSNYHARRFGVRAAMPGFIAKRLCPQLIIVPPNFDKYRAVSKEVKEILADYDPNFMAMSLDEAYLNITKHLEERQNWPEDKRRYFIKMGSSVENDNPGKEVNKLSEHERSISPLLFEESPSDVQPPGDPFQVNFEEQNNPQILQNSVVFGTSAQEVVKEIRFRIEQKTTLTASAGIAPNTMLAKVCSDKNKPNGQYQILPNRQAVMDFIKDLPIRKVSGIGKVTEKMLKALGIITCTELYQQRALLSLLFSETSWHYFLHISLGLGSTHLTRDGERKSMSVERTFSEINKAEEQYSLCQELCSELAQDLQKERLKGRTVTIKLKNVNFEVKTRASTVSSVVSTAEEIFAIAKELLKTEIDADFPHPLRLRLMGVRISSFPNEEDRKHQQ
property-measured: IC50 (nM)
Quick note: give the figure in nM, leave out the unit.

Challenge: Give IC50 for Cl.[H]/N=C(\N)NN=Cc1cn(C(=O)c2cccc3ccccc23)c2ccc(Cl)cc12
Response given: 1400
